Assay: self-splicing fitness, log relative to wild type (ln ratio); higher = more splicing; Tetrahymena group I intron in knt gene, E. coli kanamycin selection, DiMSum; sequences stand for … in CUCUCU…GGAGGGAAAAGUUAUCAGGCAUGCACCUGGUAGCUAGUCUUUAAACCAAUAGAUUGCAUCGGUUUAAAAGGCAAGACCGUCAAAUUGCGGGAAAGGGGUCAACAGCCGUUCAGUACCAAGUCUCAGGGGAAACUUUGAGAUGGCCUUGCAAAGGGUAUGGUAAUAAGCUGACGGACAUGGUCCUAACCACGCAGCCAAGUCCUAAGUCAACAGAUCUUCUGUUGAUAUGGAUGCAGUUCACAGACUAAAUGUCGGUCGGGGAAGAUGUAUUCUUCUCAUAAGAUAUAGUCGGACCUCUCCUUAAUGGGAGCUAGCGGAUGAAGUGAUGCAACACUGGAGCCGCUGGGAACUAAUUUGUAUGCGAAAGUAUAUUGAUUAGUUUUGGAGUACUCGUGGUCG;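 note: selection with 25 µg/mL kanamycin versus none on LB agar overnight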
Settings: 37 °C
# binarize self-splicing fitness (ln): threshold -1 inclusive, high side Satisfied, low side Not satisfied

// known answers, use as guide
CUGAAGCAAUAUUACGUAAC : Not satisfied
UAAAAGCAAUAUUACGCCCG : Satisfied
GGACAGCAAUAUUACGUCUA : Satisfied
ACACAGCAAUAUUACGGGGU : Not satisfied
CACUAGCAAUAUUACGUCUC : Not satisfied
AAAGAGCAAUAUUACGCGAU : Not satisfied
GCCCAGCAAUAUUACGUCGU : Satisfied

From here, focus on the item given below.
Could you please find out whether GCAAAGCAAUAUUACGUCCC has self-splicing fitness (ln) that meets -1 or exceeds it?
Satisfied

---

Assay: self-splicing fitness, log relative to wild type (ln ratio); higher = more splicing; Tetrahymena group I intron in knt gene, E. coli kanamycin selection, DiMSum; sequences stand for … in CUCUCU…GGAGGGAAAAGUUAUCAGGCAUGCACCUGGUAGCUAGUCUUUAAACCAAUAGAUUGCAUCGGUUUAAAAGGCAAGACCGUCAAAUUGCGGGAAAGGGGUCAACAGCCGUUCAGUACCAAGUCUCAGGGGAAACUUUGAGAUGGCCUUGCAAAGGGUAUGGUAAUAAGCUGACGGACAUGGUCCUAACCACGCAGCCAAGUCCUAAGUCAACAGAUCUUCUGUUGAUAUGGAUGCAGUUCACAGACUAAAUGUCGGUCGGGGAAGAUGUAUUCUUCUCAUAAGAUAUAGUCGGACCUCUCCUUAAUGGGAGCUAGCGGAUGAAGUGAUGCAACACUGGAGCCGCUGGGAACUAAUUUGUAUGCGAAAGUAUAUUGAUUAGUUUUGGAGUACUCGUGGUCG
Settings: 37 °C
Classes are defined on self-splicing fitness (ln) with ranges bucket 1 (below -2), bucket 2 (-2 to below -1), bucket 3 (-1 or more)

Use these answered entries as a reference point.
UCCCAGCAAUAUUACGGGGA : bucket 1
GAUCAGCAAUAUUACGGAAC : bucket 3
UCCGAGCAAUAUUACGGAUA : bucket 1
AAGGAGCAAUAUUACGUUGA : bucket 1

Tag the class for ACGCAGCAAUAUUACGUAAG
bucket 2

Class for UAAGAGCAAUAUUACGCUAA ?
bucket 2

Could you tell me which band UCGGAGCAAUAUUACGCGCU belongs to?
bucket 1
